# System: E. coli ATCC 25922 (SEN) and E. coli NCTC13846 (MDR)
# methodSummary: Adaptive laboratory evolution (ALE), relative MIC of evolved lines
# Format: cell-based, Escherichia coli
# experimentalSetup: EC-SEN (Escherichia coli ATCC 25922), evolved line 1 adapted to the named antibiotic
compounds and their reported Relative MIC (log10)

Here are 3 compounds together with their reported answers.
CN(C)c1cc(CNCC(C)(C)C)c(O)c2c1C[C@H]1C[C@H]3[C@H](N(C)C)C(O)=C(C(N)=O)C(=O)[C@@]3(O)C(O)=C1C2=O	0.9031
O=c1ccc2ncc(=O)n3c2n1C[C@H]3CN1CCC(NCc2cc3c(cn2)OCCC3)CC1	2.107
C[C@H]1c2cccc(O)c2C(=O)C2=C(O)[C@]3(O)C(=O)C(C(N)=O)=C(O)[C@@H](N(C)C)[C@@H]3[C@@H](O)[C@@H]21	1.505

Reading of Relative MIC (log10) for `CN(C)[C@@H]1C(O)=C(C(N)=O)C(=O)[C@@]2(O)C(O)=C3C(=O)c4c(O)c(NC(=O)CN5CCCC5)cc(F)c4C[C@H]3C[C@@H]12` with E. coli ATCC 25922 (SEN) and E. coli NCTC13846 (MDR): 1.806

Values from paper PMC11845477
